- target_desc: Coagulation factor X (Homo sapiens, UniProt P00742)
- Sequence (P00742 41-179 limits assumed): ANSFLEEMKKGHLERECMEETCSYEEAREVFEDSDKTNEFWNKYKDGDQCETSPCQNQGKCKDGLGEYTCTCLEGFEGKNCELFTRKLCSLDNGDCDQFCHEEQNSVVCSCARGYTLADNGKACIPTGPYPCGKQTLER
- Sequence (P00742 235-488 limits assumed): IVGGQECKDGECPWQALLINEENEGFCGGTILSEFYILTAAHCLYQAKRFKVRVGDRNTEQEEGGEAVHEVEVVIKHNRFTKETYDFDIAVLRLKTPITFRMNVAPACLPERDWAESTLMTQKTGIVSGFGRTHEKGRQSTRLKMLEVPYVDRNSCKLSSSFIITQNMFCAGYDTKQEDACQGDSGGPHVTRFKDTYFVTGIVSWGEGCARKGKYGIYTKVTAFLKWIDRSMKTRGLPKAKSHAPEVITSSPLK
- method_summary: In vitro inhibition of human Factor Xa.
outcome_measure: IC50 (µM)

// worked examples, IC50 included
| compound | IC50 / µM |
| --- | --- |
| N=C(N)N1CCC[C@H](NC(=O)CNC(=O)[C@@H](CCCNC(=O)c2cnccn2)NS(=O)(=O)Cc2ccccc2)C1O (some centres not stated) | 0.015 |
| N=C(N)N1CCC[C@H](NC(=O)CNC(=O)[C@@H](CCNC(=O)c2ccccn2)NS(=O)(=O)Cc2ccccc2)C1O (some centres not stated) | 0.0205 |

A = N=C(N)N1CCC[C@H](NC(=O)CNC(=O)[C@@H](CCNC(=O)c2cnccn2)NS(=O)(=O)Cc2ccccc2)C1O (some centres not stated)
B = N=C(N)N1CCC[C@H](NC(=O)CNC(=O)[C@@H](CCNC(=O)c2nccc3ccccc23)NC(=O)OCc2ccccc2)C1O (some centres not stated)
[ask] # returns the entry with the larger IC50; inputs A and B Select an item and report its label.
[reply] B
(B: 0.313 µM, A: 0.005 µM)

a = N=C(N)N1CCC[C@H](NC(=O)CNC(=O)[C@@H](CCNC(=O)c2cnnc3ccccc23)NS(=O)(=O)Cc2ccccc2)C1O (some centres not stated)
b = N=C(N)N1CCC[C@H](NC(=O)CNC(=O)[C@@H](CCNC(=O)c2cnccn2)NC(=O)OCc2ccccc2)C1O (some centres not stated)
[ask] I need your help: which of the pair a , b has higher IC50? Write down the label of the entry you select.
[reply] b
(b: 0.106 µM, a: 0.0056 µM)

The reported measurements were obtained from ChEMBL document CHEMBL1131910.
